ASSAYED_SYSTEM: HLA-A*0201 (human)
EXPERIMENT_DESCRIPTION: inhibition of 125I probe peptide binding to purified HLA, gel filtration
EXPERIMENTAL_CONTEXT: remark: other sources report otherwise
pIC50: −log10 of the molar value.
READOUT_LABEL: pIC50

>  <BINDER>
DLMLLRLSEPV [Peptide 63.0109 (PSA.116.V11)]

>  <READOUT_LABEL>
pIC50

>  <ASSAY_VALUE>
7.30

$$$$
>  <BINDER>
VVFLTLSVTWV [Peptide 63.0185 (PSA.1.V11)]

>  <READOUT_LABEL>
pIC50

>  <ASSAY_VALUE>
7.05

$$$$

[I] KVTKFMLCV [Peptide 60.0220 (PSA.187.V9)]
[II] VVFLTLSVTWI [Peptide 1419.25 (PSA.1)]
[III] LMLLRLSEPA [Peptide 63.0014 (PSA.117)]
Enquiry: List the 3 entries from lowest pIC50 to highest pIC50 value. To answer, write out the labels according to the requested order.
Return: II, III, I
(II: 6.41, III: 6.70, I: 7.16)
